Entry source: PubChem BioAssay (NCI)

# Tested on: MCF7 breast
# Assay info: NCI-60 one-dose screen, 48 h (100 = growth as untreated, 0 = no growth, -100 = all killed)
# Measurement conditions: 10 µM unless noted
Compounds without any hit were thinned out: in the full panel of roughly 83,000, 20% have a hit.
Assign a class from recorded growth; defined classes: class 0 = under 20%, class 1 = from 20% up to 70%, class 2 = 70% and over

These recorded examples may help you get a feel for the data.
{"columns": ["Compound", "Category"],
 "data": [
  ["COc1cc(Br)c(OC)cc1Br", "class 1"],
  ["C/C(=N\\NC(=O)CC#N)c1cc2cc(Cl)ccc2o1", "class 2"],
  ["CCOC(=O)c1ccccc1NC(c1ccccc1)c1ccc2cccnc2c1O (stereo not given)", "class 0"]
]}

// query Lab note: sort COc1ccc(C(=O)c2cc(OC)c(OC)c(OC)c2)cc1/C=C/C(=O)c1ccc(OC)c(OC)c1 into the matching growth band.
// result class 0

// query Now the compound Cc1sc(N=Nc2ccc(N(C)C)cc2)[n+]([O-])c1C
// result class 2

// query Now the compound Nc1nc(N)c2nc(CNc3ccc(C(=O)CC(CCC(=O)O)C(=O)O)cc3)cnc2n1 (stereo not given)
// result class 1

// query Now the compound Cc1ccc(Cn2c(-c3cccs3)nc3ccccc32)cc1
// result class 2

// query Now the compound COc1cc(OC)c(C(=O)/C=C/c2cccc(C#N)c2)c(OC)c1
// result class 0

// query Now the compound Cc1ccc2nc(-c3c(N)n[nH]c3CCCO)[nH]c(=O)c2c1
// result class 2

// query Now the compound COC1=CC(c2ccc[nH]2)=N/C1=C\c1[nH]c(C)c(C(=O)CCCCC(=O)Oc2ccc3c(c2)CCC2C3CC[C@]3(C)[C@@H](O)CC[C@@H]23)c1C (stereo not given in full)
// result class 1

----------
# Tested on: SK-MEL-28 melanoma
# Assay info: NCI-60 one-dose screen, 48 h (100 = growth as untreated, 0 = no growth, -100 = all killed)
# Measurement conditions: 10 µM unless noted
# Procedure: Growth inhibition of the SK-MEL-28 human tumor cell line is measured as a screen for anti-cancer activity. Cells are grown in 96 well plates and exposed to the test compound for 48 hours. Compounds are tested at a single concentration, which is 10^-5 M for most compounds. The reported endpoint is percent growth (GI% or GIPRCNT), where numbers from 0 - 100% represent growth inhibition, and numbers from -100% - 0 represent cell death. For example, a value of 40 represents 60% growth inhibition. […]
Compounds without any hit were thinned out: in the full panel of roughly 83,000, 20% have a hit.
Measurement type: growth (%)
Value expressed in %; do not type the unit.

{"columns": ["Molecule", "Test system", "Unit abbreviation", "growth"],
 "data": [
  ["CN(C)c1ccc(C2CC(c3ccccc3)=NN2/C=C2\\SC(=O)NC2=O)cc1 (stereo not given)", "SK-MEL-28 melanoma", "%", 91.1]
]}

// query What growth value was documented for this molecule, COc1ccc(OC)c(C(=O)c2oc3ccc(Br)cc3c2N)c1 ?
// result 37.9

// query Now the molecule CCNC(=O)CCCCC(=O)c1c(C)[nH]c(/C=C2\N=C(c3ccc[nH]3)C=C2OC)c1C
// result 51.9

// query Now the molecule Cc1ccc(Cn2c(-c3cccs3)nc3ccccc32)cc1
// result 111
